System: HCT-116 colon
ASSAY_TEXT: NCI-60 one-dose screen, 48 h
EXPERIMENTAL_PARAMETERS: 10 µM unless noted
This is part of a sample that, as a whole, favours compounds with a hit. Of some 83,000 tested, about 20% had one in any assay. Active and inactive are the calls of the source. The calls were made as follows: active = growth percent below 10; inactive = the rest.
Outcome (select one): active, inactive

CC(=O)Nc1ccc(C=Nc2ccc3ccccc3c2)cc1 ... inactive

### Prompt Identify the outcome logged in this assay for the compound shown: "O=C(CSc1nc2ccc([N+](=O)[O-])cc2[nH]1)Nc1ccc(F)c(Cl)c1"
### Response active

### Prompt Identify the outcome logged in this assay for the compound shown: "CNc1cc(C(=O)O)nc(NC)n1"
### Response inactive

### Prompt Identify the outcome logged in this assay for the compound shown: "O=[N+]([O-])c1cccc(/C=C/c2ccc3ccccc3n2)c1"
### Response inactive

### Prompt Identify the outcome logged in this assay for the compound shown: "O=C1COCCN1c1ccc(NCc2cn(Cc3ccc(F)cc3)c3ccccc23)cc1"
### Response active

### Prompt Identify the outcome logged in this assay for the compound shown: "Cn1cc(-c2nnc(-c3cn(C)c4ncc(Br)cc34)o2)c2ccccc21"
### Response inactive

### Prompt Identify the outcome logged in this assay for the compound shown: "CCCCCn1c(C)cc(/C=C\c2ccc3cc(C)ccc3[n+]2C)c1C"
### Response active

### Prompt Identify the outcome logged in this assay for the compound shown: "Cn1cc(-c2nnc(-c3cn(C)c4ncc(Br)cc34)s2)c2cc(Br)ccc21"
### Response inactive
